molecular target: T1, tissue factor (S33 to E251) (Homo sapiens, UniProt P13726); assay: SPR; Biacore 8K; TF immobilised on a CM5 chip by amine coupling (450-750 response units); Fab as analyte; single-cycle kinetics, association 120 s, dissociation 1800 s, no regeneration; PBS with 0.005% Tween-20; three measurements; details: both partners purified
T1 construct: tissue factor (TF), residues S33 to E251; the antigen of the antibody D3h44 in PDB 1JPS; The tag was removed with Ulp1; tag-free TF was used; Antigen residues named in the text (S202, K169, P194, I152) follow the numbering of PDB 1JPS, not that of the construct limits; also called TF; antigen; source: E. coli BL21 (DE3), purified (Ni-NTA, SEC); not shown: His6, N-terminal, cleaved; SUMO, …
T1 sequence (P13726 33-251): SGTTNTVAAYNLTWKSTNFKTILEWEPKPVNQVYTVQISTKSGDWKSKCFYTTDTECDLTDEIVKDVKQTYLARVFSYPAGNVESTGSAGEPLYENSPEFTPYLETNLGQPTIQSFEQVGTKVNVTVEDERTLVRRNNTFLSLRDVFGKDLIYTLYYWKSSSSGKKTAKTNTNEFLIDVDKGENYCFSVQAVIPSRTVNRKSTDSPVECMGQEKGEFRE
Measurement type: koff (s⁻¹)
Hi! Could you send only the number? It should be in s⁻¹, unit omitted.

Use the examples below as a reference point.
[
  {
    "Binder": "D3h44 Fab L-H91E (Fab, V domains shown, as the heavy chain of m2 (PDB 1JPS chain H); as the light chain of m2 (PDB 1JPS chain L) with the stated change; Tag as for m2; source: ExpiCHO, purified (Ni-NTA, SEC)) VH: EVQLVESGGGLVQPGGSLRLSCAASGFNIKEYYMHWVRQAPGKGLEWVGLIDPEQGNTIYDPKFQDRATISADNSKNTAYLQMNSLRAEDTAVYYCARDTAAYFDYWGQGTLVTVSS VL: DIQMTQSPSSLSASVGDRVTITCRASRDIKSYLNWYQQKPGKAPKVLIYYATSLAEGVPSRFSGSGSGTDYTLTISSLQPEDFATYYCLQEGESPWTFGQGTKVEIK",
    "Unit": "s⁻¹",
    "Recorded value": "2.7e-05"
  },
  {
    "Binder": "D3h44 Fab H-K30Q/H-E54H double-point mutant (Fab, V domains shown, as the heavy chain of m2 (PDB 1JPS chain H) with the stated changes; as the light chain of m2 (PDB 1JPS chain L); Tag as for m2; source: ExpiCHO, purified (Ni-NTA, SEC)) VH: EVQLVESGGGLVQPGGSLRLSCAASGFNIQEYYMHWVRQAPGKGLEWVGLIDPHQGNTIYDPKFQDRATISADNSKNTAYLQMNSLRAEDTAVYYCARDTAAYFDYWGQGTLVTVSS VL: DIQMTQSPSSLSASVGDRVTITCRASRDIKSYLNWYQQKPGKAPKVLIYYATSLAEGVPSRFSGSGSGTDYTLTISSLQPEDFATYYCLQHGESPWTFGQGTKVEIK",
    "Unit": "s⁻¹",
    "Recorded value": "2.6e-05"
  },
  {
    "Binder": "D3h44 Fab L-N34D (Fab, V domains shown, as the heavy chain of m2 (PDB 1JPS chain H); as the light chain of m2 (PDB 1JPS chain L) with the stated change; Tag as for m2; source: ExpiCHO, purified (Ni-NTA, SEC)) VH: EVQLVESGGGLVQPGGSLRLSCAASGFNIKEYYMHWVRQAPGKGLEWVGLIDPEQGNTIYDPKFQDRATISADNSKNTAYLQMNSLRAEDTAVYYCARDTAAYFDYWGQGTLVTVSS VL: DIQMTQSPSSLSASVGDRVTITCRASRDIKSYLDWYQQKPGKAPKVLIYYATSLAEGVPSRFSGSGSGTDYTLTISSLQPEDFATYYCLQHGESPWTFGQGTKVEIK",
    "Unit": "s⁻¹",
    "Recorded value": 0.00062
  },
  {
    "Binder": "D3h44 Fab H-A101V (Fab, V domains shown, as the heavy chain of m2 (PDB 1JPS chain H) with the stated change; as the light chain of m2 (PDB 1JPS chain L); Tag as for m2; source: ExpiCHO, purified (Ni-NTA, SEC)) VH: EVQLVESGGGLVQPGGSLRLSCAASGFNIKEYYMHWVRQAPGKGLEWVGLIDPEQGNTIYDPKFQDRATISADNSKNTAYLQMNSLRAEDTAVYYCARDTVAYFDYWGQGTLVTVSS VL: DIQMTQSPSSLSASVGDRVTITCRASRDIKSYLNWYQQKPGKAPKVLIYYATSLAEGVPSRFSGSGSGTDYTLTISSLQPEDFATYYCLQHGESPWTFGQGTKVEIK",
    "Unit": "s⁻¹",
    "Recorded value": 0.00018
  }
]

Shift focus to the following entry.
Prompt: Could you tell me which koff is on file for D3h44 Fab H-A101S/H-A102H double-point mutant (Fab, V domains shown, as the heavy chain of m2 (PDB 1JPS chain H) with the stated changes; as the light chain of m2 (PDB 1JPS chain L); Tag as for m2; source: ExpiCHO, purified (Ni-NTA, SEC)) VH: EVQLVESGGGLVQPGGSLRLSCAASGFNIKEYYMHWVRQAPGKGLEWVGLIDPEQGNTIYDPKFQDRATISADNSKNTAYLQMNSLRAEDTAVYYCARDTSHYFDYWGQGTLVTVSS VL: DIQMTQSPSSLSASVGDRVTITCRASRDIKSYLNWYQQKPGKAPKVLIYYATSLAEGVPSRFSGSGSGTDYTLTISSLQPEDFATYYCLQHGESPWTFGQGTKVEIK ?
Completion: 0.00018

Where do these numbers come from? They come from paper PMC7567794.
